experimentalTarget: IL-1β protease (Homo sapiens)
Sequence (P29466 120-297 limits assumed): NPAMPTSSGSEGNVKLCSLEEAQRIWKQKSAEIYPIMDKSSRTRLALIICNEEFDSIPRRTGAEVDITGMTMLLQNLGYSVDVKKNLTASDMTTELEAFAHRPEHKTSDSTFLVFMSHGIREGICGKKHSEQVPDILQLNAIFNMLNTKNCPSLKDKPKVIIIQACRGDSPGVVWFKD
Sequence (P29466 317-404 limits assumed): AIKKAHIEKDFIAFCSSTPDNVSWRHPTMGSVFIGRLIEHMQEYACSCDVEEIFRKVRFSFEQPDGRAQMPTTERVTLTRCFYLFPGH
readoutType: IC50 (nM)
I only need the number, in nM, no unit after it.

Lab note: `O=C(O)C[C@H](NC(=O)OCc1ccccc1)C(=O)COC(=O)c1c(C(F)(F)F)cccc1C(F)(F)F` gave IC50 of 100
